Catalogue of Minimal inhibitory concentration (MIC) readings, one per entry.
Tested on: Candida albicans A. 10231
Test Protocol: In vitro antifungal activity, microbroth dilution MIC
Format: cell-based
Measurement Context: C. albicans A. 10231, RPMI-1640, 35° C., 4 to 48 hours
Provide only the numeric value, understood in µg/mL.

Solved cases below.
{"Compound": "FC(OCC1COC(Cn2ccnc2)(c2ccc(F)cc2F)O1)=C(c1ccccc1)C(F)(F)F (mixture of isomers)", "Minimal inhibitory concentration (MIC) (µg/mL)": 12.5}
{"Compound": "FC(OCC1COC(Cn2ccnc2)(c2ccc(F)cc2F)O1)=C(c1ccc2c(c1)OCO2)C(F)(F)F (mixture of isomers)", "Minimal inhibitory concentration (MIC) (µg/mL)": 12.5}
{"Compound": "FC(=Cc1cccc(F)c1)OCC1COC(Cn2ccnc2)(c2ccc(Cl)cc2Cl)O1 (stereo not drawn)", "Minimal inhibitory concentration (MIC) (µg/mL)": 6.25}
{"Compound": "FC(=Cc1ccc(F)cc1)OCC1COC(Cn2ccnc2)(c2ccc(Cl)cc2Cl)O1 (stereo not drawn)", "Minimal inhibitory concentration (MIC) (µg/mL)": 12.5}
{"Compound": "COc1cccc(C(=C(F)OCC2COC(Cn3ccnc3)(c3ccc(F)cc3F)O2)C(F)(F)F)c1 (mixture of isomers)", "Minimal inhibitory concentration (MIC) (µg/mL)": 12.5}

## Task Which Minimal inhibitory concentration (MIC) value is on record for FC(=Cc1ccc2c(c1)OCO2)OCC1COC(Cn2ccnc2)(c2ccc(Cl)cc2Cl)O1 (stereo not drawn) ?
## Result 12.5

## Task Also check Cc1cc(C)c(C=C(F)OCC2COC(Cn3ccnc3)(c3ccc(F)cc3F)O2)cc1C (mixture of isomers)
## Result 12.5

## Task Same read-out for FC(OCC1COC(Cn2ccnc2)(c2ccc(Cl)cc2Cl)O1)=C(c1cccc(Cl)c1)C(F)(F)F (stereo not drawn) ?
## Result 25.0

## Task Could you do the same for COc1ccc(C(=C(F)OCC2COC(Cn3ccnc3)(c3ccc(Cl)cc3Cl)O2)C(F)(F)F)cc1 (stereo not drawn) , please?
## Result 25.0

## Task Another compound to check: COc1ccc(C=C(F)OCC2COC(Cn3cncn3)(c3ccc(Cl)cc3Cl)O2)cc1 (mixture of isomers)
## Result 100
